test system: HCC 2998; assay: NCI tumour cell line growth inhibition, 48 h
Active and inactive are the calls of the source. Rule as the data show it: active = GI50 up to about 1.1 µM and inactive = higher.
Readout: GI50

// GI50 value for CCOC(=O)/C(=C\c1cn(C(C)=O)c2ccccc12)P(C)(=O)OCC (stereo not given) : 27.9 µM (inactive)

# GI50 (molecule: `COc1cccc2nc3ccccc3nc12` ) is 79.4 µM (inactive)

Item: `CN1CCN(C(=S)N(C(=O)c2cccs2)c2ccccc2)CC1` | GI50: > 100 µM (inactive)

For Cc1cccc2c1Oc1cc(Cl)ccc1C2NC(=O)CN(C)C (stereo not given) the molecule record lists GI50 as 34.8 µM (inactive)

---
The reported value for `CC[C@](C)(O)C(=O)O[C@H]1C(=O)O[C@@H]2C[C@H]3C(C)=CC(=O)[C@@H](O)[C@]3(C)[C@H]3[C@@]4(O)OC[C@]32[C@@H]1[C@@H](C)[C@H]4O` in terms of GI50 is 0.0679 µM (active)

----------
test system: IGROV-1; test: NCI tumour cell line growth inhibition, 48 h
Calls of active or inactive are those of the source. No stated cut-off is given here; in the data, active = GI50 up to about 1.1 µM and inactive = higher.
Lab note: assign the record to one of 1 = active, -1 = inactive

Give the logged outcome of this assay for the following molecule: NC(=O)c1csc(C2OC(CO)C(O)C2O)n1 (configuration not stated)
-1

So what was the verdict on Cc1cccc2c1Oc1cc(Cl)ccc1C2NC(=O)CN(C)C (configuration not stated) in this test?
-1

Recorded test outcome, item `Cc1[nH]n(-c2nc(-c3ccccc3)cc(=O)[nH]2)c(=O)c1CCO`
-1

---
Would you mind telling me which call this test gave `COc1cccc(NC(=O)CC(=O)n2nc(C)c(/N=N/c3ccccc3)c2C)c1` ?
-1

So what was the verdict on O=C1NC(=O)C2=C1CCC2O (configuration not stated) in this test?
-1

Fill in: this test's call for `COc1c2occc2c(N)c2ccc(=O)oc12` is ___
-1

Outcome? `Cc1ccc([N+](=O)[O-])cc1NC(=O)C(=O)Cc1cc(=O)oc2cc(O)ccc12`
-1

Fill in: this test's call for `O=C1CC2(CCNCC2)C(=O)N1N1CCCCC1` is ___
-1

Per the assay record, what outcome was assigned to `COc1ccc(OC)c(NCC#N)c1` ?
-1

Would you mind telling me which call this test gave `CCOC(=O)Oc1ccc2c(c1)c(=O)c1c(NCCN(CC)CC)ccc3nnn2c31` ?
1

----------
test system: CCRF-CEM; test: NCI tumour cell line growth inhibition, 48 h
The source made the active and inactive calls. Rule as the data show it: active = GI50 up to about 1.1 µM and inactive = higher.
Give one outcome, nothing more. List: Yes (active), No (inactive)

Worked cases, answers included:
Which outcome was entered for the compound `C/N=C(\SC)N(C)c1nc(=[N+](C)C)ss1.[O-][Cl+3]([O-])([O-])[O-]` in this test?
No

Status in this test for CC(=O)OCC1=C(CCC#N)N2C(=O)C(NC(=O)Cc3cccs3)C2[S+]([O-])C1 (stereo not drawn) ?
No

So what was the verdict on CC(O)/C=C/C(CCC(C)CO)C(C)C (stereo not drawn) in this test?
No

Others:
Status in this test for C=CCNC(=S)N1c2ccccc2NC(=O)CC1C (stereo not drawn) ?
No

Look up the recorded call for Cc1cc(C)c(N[S+]([O-])c2cccc(C(F)(F)F)c2)c(C)c1 (stereo not drawn) in this test.
No

Assay result, entry `O=c1cccccc1NCCCCCCCNc1cccccc1=O` — outcome?
No

Dear colleague, could you share the recorded outcome for `COc1c2occc2c(N)c2ccc(=O)oc12` when you have a moment?
No

Called result for `Cc1nc(=O)n2c(c1C(=O)Nc1ccc(Cl)cc1)NCCC2`
No

State the result this test recorded for `O=C1/C(=C/c2ccccc2)CN(C(=O)Oc2ccc(Cl)cc2)C/C1=C\c1ccccc1` .
No

Outcome? `C=C(COC(=O)C(C)C)[C@H]1Oc2ccc(C(C)=O)cc2[C@@H]1OC(=O)C(C)C`
No
